Tested on: HCV genotype 1b subgenomic replicon
Assay: HCV replicon assay, genotype 1b subgenomic replicon (ET cell line, luciferase)
Type: cell-based
Conditions: Hepatitis C virus; genotype 1b replicon ET cell line, luciferase activity measured 48 hours later; read-out: Replicon 1B pEC50 (converted)
Description: Protocol for Testing and Data Analysis of Compounds in the HCV Replicon Assay Compounds were assayed for activity against HCV using the genotype 1a and 1b subgenomic replicon model systems. […] Luciferase activity was measured 48 hours later by adding a Steady glo reagent (Promega, Madison, Wis.). […] Under the same condition, cytotoxicity of the compounds was determined using cell titer glo (Promega, Madison, Ws). […]
experimental readout: EC50 (nM)
Respond with the bare value in nM.

## Task # return EC50 of COC(=O)NCC(=O)N1CC2(C[C@H]1c1ncc(-c3ccc(-c4ccc(-c5cnc([C@@H]6CCCN6C(=O)[C@@H](NC(=O)OC)C(C)C)[nH]5)cc4)cc3)[nH]1)SCCS2 [Example 14] (system: HCV genotype 1b subgenomic replicon)
## Result 0.00501

## Task Would you please give the reported EC50 of COC(=O)N[C@H](C(=O)N1CC2(CC1c1ncc(-c3ccc(-c4ccc(-c5cnc([C@@H]6CCCN6C(=O)[C@@H](NC(=O)OC)C(C)C)[nH]5)cc4)cc3)[nH]1)CN(C(=O)OC)C2)C(C)C (stereo partly shown) [Example 26] with HCV genotype 1b subgenomic replicon?
## Result 0.0501

## Task Please look at COC(=O)N[C@H](C(=O)N1CC2(CCS(=O)(=O)CC2)CC1c1ncc(-c2ccc(-c3ccc(-c4cnc([C@@H]5CCCN5C(=O)[C@@H](NC(=O)OC)C(C)C)[nH]4)cc3)cc2)[nH]1)C(C)C (stereo partly shown) [Example 16] and tell me its recorded EC50 on HCV genotype 1b subgenomic replicon.
## Result 0.0398

## Task Consider the compound COC(=O)N[C@H](C(=O)N1CC2(C[C@H]1c1ncc(-c3ccc(-c4ccc(-c5cnc([C@@H]6CC7(CN6C(=O)[C@@H](NC(=O)OC)C(C)C)OCCO7)[nH]5)cc4)cc3)[nH]1)OCCO2)C(C)C [Example 4] tested on HCV genotype 1b subgenomic replicon; state its EC50.
## Result 0.01

---

System: HCV genotype 1b subgenomic replicon
Test: HCV replicon assay, genotype 1b subgenomic replicon (ET cell line, luciferase)
Assay type: cell-based
Conditions: Hepatitis C virus; genotype 1b replicon ET cell line, luciferase activity measured 48 hours later; read-out: Replicon 1B pEC50 (converted)
Protocol: Protocol for Testing and Data Analysis of Compounds in the HCV Replicon Assay Compounds were assayed for activity against HCV using the genotype 1a and 1b subgenomic replicon model systems. […] Luciferase activity was measured 48 hours later by adding a Steady glo reagent (Promega, Madison, Wis.). […] Under the same condition, cytotoxicity of the compounds was determined using cell titer glo (Promega, Madison, Ws). […]
experimental readout: EC50 (nM)
Your answer is read as nM, so omit the unit and give the number.

## Task // Input: COC(=O)N[C@@H](C)C(=O)N1CC2(C[C@H]1c1ncc(-c3ccc(-c4ccc(-c5cnc([C@@H]6CCCN6C(=O)[C@@H](NC(=O)OC)C(C)C)[nH]5)cc4)cc3)[nH]1)OCCCO2 . Output its EC50 only.
## Result 0.02

## Task Specify reported EC50 for the compound shown: COC(=O)N[C@H](C(=O)N1CCC[C@H]1c1ncc(-c2ccc(-c3ccc(-c4cnc([C@@H]5CC6(CN5C(=O)[C@@H](NC(=O)OC)C(C)C)O[C@H](C)[C@@H](C)O6)[nH]4)cc3)cc2)[nH]1)C(C)C
## Result 0.01

## Task Please supply the value of reported EC50 for the item CC[C@H](NC(=O)OC)C(=O)N1CC2(C[C@H]1c1nc(-c3ccc(-c4ccc(-c5c[nH]c([C@@H]6CCCN6C(=O)[C@@H](NC(=O)OC)C(C)C)n5)cc4)cc3)c[nH]1)SCCS2
## Result 0.00398

## Task Identify the reported EC50 for the following entry. COC(=O)N[C@H](C(=O)N1CCC[C@H]1c1ncc(-c2ccc(-c3ccc(-c4c[nH]c(C5CCC6(CCC(F)(F)CC6)N5C(C)=O)n4)cc3)cc2)[nH]1)C(C)C (some centres unmarked)
## Result 0.1

## Task Dear colleague, please send me the reported EC50 for COC(=O)N[C@H](C(=O)N1CCC[C@H]1c1ncc(-c2ccc(-c3ccc(-c4cnc([C@@H]5CC6(CCC(F)(F)CC6)CN5C(=O)[C@@H](NC(=O)OC)C(C)C)[nH]4)cc3)cc2)[nH]1)C(C)C when you can.
## Result 0.00251

## Task In one line, give reported EC50 of the entry COC(=O)N[C@H](C(=O)N1CC2(CNC2)CC1c1ncc(-c2ccc(-c3ccc(-c4cnc([C@@H]5CCCN5C(=O)[C@@H](NC(=O)OC)C(C)C)[nH]4)cc3)cc2)[nH]1)C(C)C (some centres unmarked) .
## Result 0.126

## Task For the compound COC(=O)N[C@H](C(=O)N1CCC[C@H]1c1ncc(-c2ccc(-c3ccc(-c4cnc([C@@H]5CC6(CN5C(=O)[C@@H](NC(=O)OC)C(C)C)OCC(C)(C)CO6)[nH]4)cc3)cc2)[nH]1)C(C)C , report EC50.
## Result 0.00251

## Task # return recorded EC50 for entry COC(=O)N[C@@H](CC(C)C)C(=O)N1C(c2nc(-c3ccc(-c4ccc(-c5cnc([C@@H]6CCCN6C(=O)[C@@H](NC(=O)OC)C(C)C)[nH]5)cc4)cc3)c[nH]2)CCC12CCC(F)(F)CC2 (some centres unmarked)
## Result 0.0126
